Biological target: Voltage-dependent L-type calcium channel (Cavia porcellus)
Assay: Displacement of [3H]nitrendipine from dihydropyridine receptor of guinea pig myocardial membranes
property.label: Kd (µM)

(I) CSC1=NC(c2ccccc2SC)c2c(coc2O)N1 (stereo not given)
(II) CSC1=NC(C)=C2C(=O)OCCCCCSc3c(cccc3[N+](=O)[O-])C2N1 (stereo not given)
(III) CSC1=NC2C(=C(C)N1)C(=O)OCCCCCSc1ccc([N+](=O)[O-])cc12 (stereo not given)
(IV) CSC1=NC2=C(C(=O)OC2)C(c2cccc([N+](=O)[O-])c2SC)N1 (stereo not given)
Qu. Sort ascending by Kd. Please list the labels according to the requested order.
Ans. II, III, IV, I
